# target under test: FKBP51 (Homo sapiens)
# assay protocol: competitive fluorescence polarization assay, FKBP51
# Assay type: binding
# Method: Affinity determination by competitive fluorescence polarization assay. The synthesized tricyclic sulfonamides were tested for their binding affinities to human FKBPs (FKBP12 and FKBP51) by the fluorescence polarization assay (Table 1).
measure name: Ki (nM)

compound	endpoint result
C=C[C@@H]1C2CCCC(C(=O)N3[C@H](C(=O)NCC)CC[C@@H]13)N2S(=O)(=O)c1cc(Cl)cc(Cl)c1 (stereo partly drawn)	1.1
C=C[C@H]1[C@@H]2CC[C@@H](c3ccccn3)N2C(=O)C2CCC[C@@H]1N2S(=O)(=O)c1cc(Cl)cc(Cl)c1	464
C=C[C@@H]1C2CCCC(C(=O)N3[C@H](C(=O)N4CCN(C)CC4)CC[C@@H]13)N2S(=O)(=O)c1cc(Cl)cc(Cl)c1 (stereo partly drawn)	11

---

# target under test: FKBP12 (Homo sapiens)
# Sequence (P62942 whole entry): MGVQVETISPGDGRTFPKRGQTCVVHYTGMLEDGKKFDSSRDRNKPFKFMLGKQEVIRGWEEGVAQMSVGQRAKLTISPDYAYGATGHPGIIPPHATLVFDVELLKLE
pKi: −log10 of the molar value.
# label = Met if pKi >= 9 else Not met

compound	label value
C=C[C@@H]1C2CCCC(C(=O)N3[C@H](C(=O)NC)CC[C@@H]13)N2S(=O)(=O)c1cc(Cl)cc(Cl)c1 (stereo partly drawn)	Met
C=C[C@@H]1C2CCCC(C(=O)N3[C@H](C(=O)N4CCC(C)CC4)CC[C@@H]13)N2S(=O)(=O)c1cc(Cl)cc(Cl)c1 (stereo partly drawn)	Met
C=C[C@H]1[C@@H]2CC[C@@H](c3ccccn3)N2C(=O)C2CCC[C@@H]1N2S(=O)(=O)c1cc(Cl)cc(Cl)c1	Not met
CC1CCN(C(=O)[C@@H]2CC[C@H]3[C@H](CO)C4CCCC(C(=O)N23)N4S(=O)(=O)c2cc(Cl)cc(Cl)c2)CC1 (stereo in doubt)	Met
CCNC(=O)[C@@H]1CC[C@H]2[C@H](CO)C3CCCC(C(=O)N12)N3S(=O)(=O)c1cc(Cl)cc(Cl)c1 (stereo in doubt)	Met

---

# target under test: UniProt:Q13451
# Sequence (Q13451 1-457): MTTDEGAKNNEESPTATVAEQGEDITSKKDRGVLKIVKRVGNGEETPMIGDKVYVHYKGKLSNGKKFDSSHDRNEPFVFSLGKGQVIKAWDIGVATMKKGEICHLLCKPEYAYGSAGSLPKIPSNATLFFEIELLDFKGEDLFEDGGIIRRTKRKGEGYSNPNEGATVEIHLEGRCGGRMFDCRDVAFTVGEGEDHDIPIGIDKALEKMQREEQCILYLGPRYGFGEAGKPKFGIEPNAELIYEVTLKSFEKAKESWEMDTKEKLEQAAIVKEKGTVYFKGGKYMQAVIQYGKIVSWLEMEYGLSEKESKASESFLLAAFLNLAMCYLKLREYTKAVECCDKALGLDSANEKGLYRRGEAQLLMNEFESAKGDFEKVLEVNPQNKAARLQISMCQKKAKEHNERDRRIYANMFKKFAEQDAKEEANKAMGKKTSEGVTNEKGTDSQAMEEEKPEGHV
pKi: −log10 of the molar value.
# label = 1 if pKi >= 8 else 0

compound	target under test	label value
CC1CCN(C(=O)[C@@H]2CC[C@H]3[C@H](CO)C4CCCC(C(=O)N23)N4S(=O)(=O)c2cc(Cl)cc(Cl)c2)CC1 (stereo in doubt)	UniProt:Q13451	1
CCNC(=O)[C@@H]1CC[C@H]2[C@H](CO)C3CCCC(C(=O)N12)N3S(=O)(=O)c1cc(Cl)cc(Cl)c1 (stereo in doubt)	UniProt:Q13451	1
C=C[C@@H]1C2CCCC(C(=O)N3[C@H](C(N)=O)CC[C@@H]13)N2S(=O)(=O)c1cc(Cl)cc(Cl)c1 (stereo partly shown)	UniProt:Q13451	0
C=C[C@@H]1C2CCCC(C(=O)N3[C@H](C(=O)N(C)C)CC[C@@H]13)N2S(=O)(=O)c1cc(Cl)cc(Cl)c1 (stereo partly shown)	UniProt:Q13451	0
C=C[C@@H]1C2CCCC(C(=O)N3[C@H](C(=O)O)CC[C@@H]13)N2S(=O)(=O)c1cc(Cl)cc(Cl)c1 (stereo partly shown)	UniProt:Q13451	0

# credit: patent US20250313562A1
